Answer each item with its documented binding signal.
# Tested on: GST-Co-NF-kB (Capsaspora owczarzaki, UniProt F1ARL5 200-546)
# Sequence: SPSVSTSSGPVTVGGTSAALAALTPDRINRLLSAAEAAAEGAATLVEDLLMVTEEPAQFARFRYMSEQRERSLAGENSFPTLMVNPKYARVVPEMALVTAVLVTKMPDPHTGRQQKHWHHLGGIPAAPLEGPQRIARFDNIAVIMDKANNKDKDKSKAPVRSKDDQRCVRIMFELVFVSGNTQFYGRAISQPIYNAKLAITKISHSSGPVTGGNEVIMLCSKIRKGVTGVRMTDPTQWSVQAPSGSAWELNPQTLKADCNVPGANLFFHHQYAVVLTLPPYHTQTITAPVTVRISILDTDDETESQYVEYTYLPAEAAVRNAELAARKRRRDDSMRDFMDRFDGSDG
# Assay notes: protein-binding microarray (PBM); PBM: ~300 nM protein, 6 mM HEPES pH 7.8, 80 mM KCl, 0.5 mM EDTA, 0.5 mM EGTA, 6% glycerol, 35 ng/ul poly-dIdC, 1% milk, 1 h, room temperature; Ap Aiptasia and Nv Nematostella (sea anemones) / Co Capsaspora / Aq Amphimedon (sponge) / Dm Drosophila / Hu human; RHD is the Rel homology domain; high values mean tight binding
# Condition summary: dsDNA, one strand shown
Answer format: numeric, z-score implied, no suffix.

Please report the recorded binding signal for CCGATTAACATCAGGGAACGCCCTGATGTTAATCGGGTCTTGATTCGCTTGACGCTGCTG .
1.21

Follow-up item: CCGATTAACATCAAGGGATTCCCTGATGTTAATCGGGTCTTGATTCGCTTGACGCTGCTG
2.7

Follow-up item: CCGATTAACATCACGGGTTTTCCTGATGTTAATCGGGTCTTGATTCGCTTGACGCTGCTG
1.18

Follow-up item: CCGATTAACATCAGGGAAATTAATGATGTTAATCGGGTCTTGATTCGCTTGACGCTGCTG
4.18

Follow-up item: CCGATTAACATCAGGGCTTCCCATGATGTTAATCGGGTCTTGATTCGCTTGACGCTGCTG
1.01

Follow-up item: CCGATTAACATCACGGTGGGAAATGATGTTAATCGGGTCTTGATTCGCTTGACGCTGCTG
2.77

Follow-up item: CCGATTAACATCAGACTGGGAAATGATGTTAATCGGGTCTTGATTCGCTTGACGCTGCTG
3.05

Follow-up item: CCGATTAACATCAGGGAATTTACTGATGTTAATCGGGTCTTGATTCGCTTGACGCTGCTG
3.89

Follow-up item: CCGATTAACATCAAGCAATCCCCTGATGTTAATCGGGTCTTGATTCGCTTGACGCTGCTG
2.5

Follow-up item: CCGATTAACATCAAGAAATTCCCTGATGTTAATCGGGTCTTGATTCGCTTGACGCTGCTG
4.57

Follow-up item: CCGATTAACATCAGGGAATGACCTGATGTTAATCGGGTCTTGATTCGCTTGACGCTGCTG
1.03

Follow-up item: CCGATTAACATCAGGGATATTTATGATGTTAATCGGGTCTTGATTCGCTTGACGCTGCTG
1.68

Follow-up item: CCGATTAACATCAGAGCCCCCCCTGATGTTAATCGGGTCTTGATTCGCTTGACGCTGCTG
3.1

Follow-up item: CCGATTAACATCAGGGAAACCACTGATGTTAATCGGGTCTTGATTCGCTTGACGCTGCTG
3.12

Follow-up item: CCGATTAACATCAGGGGCATACCTGATGTTAATCGGGTCTTGATTCGCTTGACGCTGCTG
1.44

Follow-up item: CCGATTAACATCAAGGGGGGATGTGATGTTAATCGGGTCTTGATTCGCTTGACGCTGCTG
4.75

Follow-up item: CCGATTAACATCAGGGGAACATATGATGTTAATCGGGTCTTGATTCGCTTGACGCTGCTG
7.58

Follow-up item: CCGATTAACATCAGGGAGATCCCTGATGTTAATCGGGTCTTGATTCGCTTGACGCTGCTG
1.54

Follow-up item: CCGATTAACATCAGGAATCCCCATGATGTTAATCGGGTCTTGATTCGCTTGACGCTGCTG
3.4

Follow-up item: CCGATTAACATCAGCTCCCCCCCTGATGTTAATCGGGTCTTGATTCGCTTGACGCTGCTG
5.77

Follow-up item: CCGATTAACATCAAGGAGTTCCCTGATGTTAATCGGGTCTTGATTCGCTTGACGCTGCTG
1.52

Follow-up item: CCGATTAACATCAAAATTCCCTCTGATGTTAATCGGGTCTTGATTCGCTTGACGCTGCTG
3.2

Follow-up item: CCGATTAACATCAGGGAAGACGTTGATGTTAATCGGGTCTTGATTCGCTTGACGCTGCTG
1.67

Follow-up item: CCGATTAACATCAGGGATCCCCCTGATGTTAATCGGGTCTTGATTCGCTTGACGCTGCTG
5.15

Follow-up item: CCGATTAACATCACGTTTCCCCCTGATGTTAATCGGGTCTTGATTCGCTTGACGCTGCTG
9.58

Follow-up item: CCGATTAACATCACGGGGGGGGATGATGTTAATCGGGTCTTGATTCGCTTGACGCTGCTG
7.62

Follow-up item: CCGATTAACATCAGCCCCGGTGTTGATGTTAATCGGGTCTTGATTCGCTTGACGCTGCTG
1.61

Follow-up item: CCGATTAACATCAAGGGGGGAAATGATGTTAATCGGGTCTTGATTCGCTTGACGCTGCTG
7.79

Follow-up item: CCGATTAACATCACGGGGGGGAATGATGTTAATCGGGTCTTGATTCGCTTGACGCTGCTG
9.46

Follow-up item: CCGATTAACATCAAAATACCCCGTGATGTTAATCGGGTCTTGATTCGCTTGACGCTGCTG
5.77

Follow-up item: CCGATTAACATCAGGAAGGGCGGTGATGTTAATCGGGTCTTGATTCGCTTGACGCTGCTG
1.08

Follow-up item: CCGATTAACATCACCGCCCCCCCTGATGTTAATCGGGTCTTGATTCGCTTGACGCTGCTG
3.8
